Source of measurements: paper PMC10650415

Would you mind telling me the reported MBC of each entry?
Tested on: M. luteus NCIMB 8166
assay overview: MBC by the agar method
run parameters: Micrococcus luteus, NCIMB8166

Query :: # get_value(readout='MBC', item= O=C1NC(=O)[C@]2(N1)[C@@H](c1ccc(Cl)cc1)[C@H](c1ccccc1)N[C@@]21C(=O)Nc2ccccc21 (racemic) [4e] )
Result :: > 1500 µg/mL

Query :: Also, O=C1NC(=O)[C@]2(N1)[C@@H](c1ccc(F)cc1)[C@H](c1ccccc1)N[C@@]21C(=O)Nc2ccccc21 (racemic) [4i] please.
Result :: > 1500 µg/mL

Query :: Also, O=C1NC(=O)[C@]2(N1)[C@@H](c1ccc(Br)cc1)[C@H](c1ccccc1)N[C@@]21C(=O)N(Cc2ccccc2)c2ccccc21 (racemic) [4g] please.
Result :: > 1500 µg/mL
